Hemolysis (HC10), concentration of compound at 10% hemolytic activity overview
tested on: human red blood cells; assay: Hemolytic assay; assay type: cell-based; conditions: mean (n = 2)
readout_name: Hemolysis (HC10), concentration of compound at 10% hemolytic activity

# compound, observed
measured = [
    ("C=C[C@]1(C)C[C@@H](OC(=O)CSCCN(CC)CC)[C@]2(C)[C@H](C)CC[C@]3(CCC(=O)[C@H]32)[C@@H](C)[C@@H]1O [Compound 2, Tiamulin, reference compound]", ">64.8 µM"),
    ("C=C[C@]1(C)C[C@@H](OC(=O)CNCCCNCCCCCCCNCCCNCC(=O)O[C@@H]2C[C@@](C)(C=C)[C@@H](O)[C@H](C)[C@]34CCC(=O)[C@H]3[C@@]2(C)[C@H](C)CC4)[C@]2(C)[C@H](C)CC[C@]3(CCC(=O)[C@H]32)[C@@H](C)[C@@H]1O.O=C(O)C(F)(F)F.O=C(O)C(F)(F)F.O=C(O)C(F)(F)F.O=C(O)C(F)(F)F", ">22.5 µM"),
]

====

test system: human red blood cells; test: Hemolytic assay; format: cell-based; conditions: mean (n = 2)
readout_name: Hemolysis (HC10), concentration of compound at 10% hemolytic activity (µM)

# molecule, target_under_test, observed
measured = [
    ("C=C[C@]1(C)C[C@@H](OC(=O)CNCCCNCCCCCCCCCCCCNCCCNCC(=O)O[C@@H]2C[C@@](C)(C=C)[C@@H](O)[C@H](C)[C@]34CCC(=O)[C@H]3[C@@]2(C)[C@H](C)CC4)[C@]2(C)[C@H](C)CC[C@]3(CCC(=O)[C@H]32)[C@@H](C)[C@@H]1O.O=C(O)C(F)(F)F.O=C(O)C(F)(F)F.O=C(O)C(F)(F)F.O=C(O)C(F)(F)F [Compound 9f]", "human red blood cells", 13.2),
]

====

test: Cytotoxicity assay, HEK293; format: cell-based; conditions: human; HEK293 cells; mean (n = 2); read-out: Cytotoxicity (IC50), concentration of compound at 50% cytotoxicity

# molecule, IC50 at 20 h
measured = [
    ("C=C[C@]1(C)C[C@@H](OC(=O)CNCCCNCCCCCCCCCCNCCCNCC(=O)O[C@@H]2C[C@@](C)(C=C)[C@@H](O)[C@H](C)[C@]34CCC(=O)[C@H]3[C@@]2(C)[C@H](C)CC4)[C@]2(C)[C@H](C)CC[C@]3(CCC(=O)[C@H]32)[C@@H](C)[C@@H]1O.O=C(O)C(F)(F)F.O=C(O)C(F)(F)F.O=C(O)C(F)(F)F.O=C(O)C(F)(F)F", "> 21.9 µM"),
    ("C=C[C@]1(C)C[C@@H](OC(=O)CSCCN(CC)CC)[C@]2(C)[C@H](C)CC[C@]3(CCC(=O)[C@H]32)[C@@H](C)[C@@H]1O [Compound 2, Tiamulin, reference compound]", "> 64.8 µM"),
    ("C=C[C@]1(C)C[C@@H](OC(=O)CNCCCNCCCCCCNCCCNCC(=O)O[C@@H]2C[C@@](C)(C=C)[C@@H](O)[C@H](C)[C@]34CCC(=O)[C@H]3[C@@]2(C)[C@H](C)CC4)[C@]2(C)[C@H](C)CC[C@]3(CCC(=O)[C@H]32)[C@@H](C)[C@@H]1O.O=C(O)C(F)(F)F.O=C(O)C(F)(F)F.O=C(O)C(F)(F)F.O=C(O)C(F)(F)F", "> 22.7 µM"),
    ("C=C[C@]1(C)C[C@@H](OC(=O)CNCCCNCCCCCCCNCCCNCC(=O)O[C@@H]2C[C@@](C)(C=C)[C@@H](O)[C@H](C)[C@]34CCC(=O)[C@H]3[C@@]2(C)[C@H](C)CC4)[C@]2(C)[C@H](C)CC[C@]3(CCC(=O)[C@H]32)[C@@H](C)[C@@H]1O.O=C(O)C(F)(F)F.O=C(O)C(F)(F)F.O=C(O)C(F)(F)F.O=C(O)C(F)(F)F", "> 22.5 µM"),
    ("C=C[C@]1(C)C[C@@H](OC(=O)CNCCCNCCCCCCCCNCCCNCC(=O)O[C@@H]2C[C@@](C)(C=C)[C@@H](O)[C@H](C)[C@]34CCC(=O)[C@H]3[C@@]2(C)[C@H](C)CC4)[C@]2(C)[C@H](C)CC[C@]3(CCC(=O)[C@H]32)[C@@H](C)[C@@H]1O.O=C(O)C(F)(F)F.O=C(O)C(F)(F)F.O=C(O)C(F)(F)F.O=C(O)C(F)(F)F", "> 22.3 µM"),
    ("C=C[C@]1(C)C[C@@H](OC(=O)CNCCCNCCCCNCCCNCC(=O)O[C@@H]2C[C@@](C)(C=C)[C@@H](O)[C@H](C)[C@]34CCC(=O)[C@H]3[C@@]2(C)[C@H](C)CC4)[C@]2(C)[C@H](C)CC[C@]3(CCC(=O)[C@H]32)[C@@H](C)[C@@H]1O.O=C(O)C(F)(F)F.O=C(O)C(F)(F)F.O=C(O)C(F)(F)F.O=C(O)C(F)(F)F", "> 23.2 µM"),
    ("CC/C(=C(\\c1ccccc1)c1ccc(OCCN(C)C)cc1)c1ccccc1 [tamoxifen, reference compound]", "24 µM"),
    ("C=C[C@]1(C)C[C@@H](OC(=O)CNCCCNCCCCCCCCCCCCNCCCNCC(=O)O[C@@H]2C[C@@](C)(C=C)[C@@H](O)[C@H](C)[C@]34CCC(=O)[C@H]3[C@@]2(C)[C@H](C)CC4)[C@]2(C)[C@H](C)CC[C@]3(CCC(=O)[C@H]32)[C@@H](C)[C@@H]1O.O=C(O)C(F)(F)F.O=C(O)C(F)(F)F.O=C(O)C(F)(F)F.O=C(O)C(F)(F)F", "8.3 µM"),
]

====

system: P. aeruginosa ATCC 27853; experiment: Antibiotic enhancement of doxycycline; format: cell-based; details: doxycycline at 4.5 µM (2 µg/mL)
readout_name: Dox/P.a.: concentration required to restore doxycycline activity (µM)

# molecule, reported_relation, observed
rows = [
    ("C=C[C@]1(C)C[C@@H](OC(=O)CNCCCNCCCCCCNCCCNCC(=O)O[C@@H]2C[C@@](C)(C=C)[C@@H](O)[C@H](C)[C@]34CCC(=O)[C@H]3[C@@]2(C)[C@H](C)CC4)[C@]2(C)[C@H](C)CC[C@]3(CCC(=O)[C@H]32)[C@@H](C)[C@@H]1O.O=C(O)C(F)(F)F.O=C(O)C(F)(F)F.O=C(O)C(F)(F)F.O=C(O)C(F)(F)F", "=", 35.5),
    ("C=C[C@]1(C)C[C@@H](OC(=O)CNCCCNCCCCCCCCCCNCCCNCC(=O)O[C@@H]2C[C@@](C)(C=C)[C@@H](O)[C@H](C)[C@]34CCC(=O)[C@H]3[C@@]2(C)[C@H](C)CC4)[C@]2(C)[C@H](C)CC[C@]3(CCC(=O)[C@H]32)[C@@H](C)[C@@H]1O.O=C(O)C(F)(F)F.O=C(O)C(F)(F)F.O=C(O)C(F)(F)F.O=C(O)C(F)(F)F", "=", 34.2),
    ("C=C[C@]1(C)C[C@@H](OC(=O)CNCCCNCCCCNCCCNCC(=O)O[C@@H]2C[C@@](C)(C=C)[C@@H](O)[C@H](C)[C@]34CCC(=O)[C@H]3[C@@]2(C)[C@H](C)CC4)[C@]2(C)[C@H](C)CC[C@]3(CCC(=O)[C@H]32)[C@@H](C)[C@@H]1O.O=C(O)C(F)(F)F.O=C(O)C(F)(F)F.O=C(O)C(F)(F)F.O=C(O)C(F)(F)F", "=", 18.1),
    ("C=C[C@]1(C)C[C@@H](OC(=O)CNCCCNCCCCCCCCCCCCNCCCNCC(=O)O[C@@H]2C[C@@](C)(C=C)[C@@H](O)[C@H](C)[C@]34CCC(=O)[C@H]3[C@@]2(C)[C@H](C)CC4)[C@]2(C)[C@H](C)CC[C@]3(CCC(=O)[C@H]32)[C@@H](C)[C@@H]1O.O=C(O)C(F)(F)F.O=C(O)C(F)(F)F.O=C(O)C(F)(F)F.O=C(O)C(F)(F)F", "=", 8.38),
    ("C=C[C@]1(C)C[C@@H](OC(=O)CNCCCNCCCCCCCNCCCNCC(=O)O[C@@H]2C[C@@](C)(C=C)[C@@H](O)[C@H](C)[C@]34CCC(=O)[C@H]3[C@@]2(C)[C@H](C)CC4)[C@]2(C)[C@H](C)CC[C@]3(CCC(=O)[C@H]32)[C@@H](C)[C@@H]1O.O=C(O)C(F)(F)F.O=C(O)C(F)(F)F.O=C(O)C(F)(F)F.O=C(O)C(F)(F)F", "=", 141),
    ("C=C[C@]1(C)C[C@@H](OC(=O)CSCCN(CC)CC)[C@]2(C)[C@H](C)CC[C@]3(CCC(=O)[C@H]32)[C@@H](C)[C@@H]1O [Compound 2, Tiamulin, reference compound]", ">", 405),
    ("C=C[C@]1(C)C[C@@H](OC(=O)CNCCCNCCCCCCCCNCCCNCC(=O)O[C@@H]2C[C@@](C)(C=C)[C@@H](O)[C@H](C)[C@]34CCC(=O)[C@H]3[C@@]2(C)[C@H](C)CC4)[C@]2(C)[C@H](C)CC[C@]3(CCC(=O)[C@H]32)[C@@H](C)[C@@H]1O.O=C(O)C(F)(F)F.O=C(O)C(F)(F)F.O=C(O)C(F)(F)F.O=C(O)C(F)(F)F", "=", 139),
]
